Assay: Half life in Sprague-Dawley rat at 1.1 mg/kg, iv administered via bolus injection by LC-MS/MS analysis
Type: ADME, organism-based
Conditions: in vivo
experimental.readout: half-life (h)
Express it in h; write the number only.

So, "CC(=O)NC[C@H]1O[C@@H](n2cc(Cc3ccc(C4CC4)cc3)c3c(Cl)cccc32)[C@H](O)[C@@H](O)[C@@H]1O" ? Its half-life was 3.2

----------
Assay: Volume of distribution at steady state in Sprague-Dawley rat at 1.1 mg/kg, iv administered via bolus injection measured at 2 to 5 mins post dose by LC-MS/MS analysis
Format: ADME, organism-based
Conditions: in vivo, read-out: Vdss
experimental.readout: Vd (L/kg)
Express it in L/kg; write the number only.

So, "CC(=O)NC[C@H]1O[C@@H](n2cc(Cc3ccc(C4CC4)cc3)c3c(Cl)cccc32)[C@H](O)[C@@H](O)[C@@H]1O" ? Its Vd was 2.7
